Documented pIC50 across a set of molecules
biological target: KRAS Q61H (Homo sapiens, UniProt P01116+P62937, Q61H); assay: Ras-Raf disruption / FRET / MOA assay (BRAF RBD); format: biochemical
Sequence (P01116 1-169 isoform P01116-2 Q61H limits assumed): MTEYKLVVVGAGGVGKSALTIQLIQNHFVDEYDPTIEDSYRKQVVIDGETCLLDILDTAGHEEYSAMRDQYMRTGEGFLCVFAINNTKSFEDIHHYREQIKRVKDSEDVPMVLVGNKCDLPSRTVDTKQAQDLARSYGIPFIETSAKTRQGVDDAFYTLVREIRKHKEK
Sequence (P62937 whole entry): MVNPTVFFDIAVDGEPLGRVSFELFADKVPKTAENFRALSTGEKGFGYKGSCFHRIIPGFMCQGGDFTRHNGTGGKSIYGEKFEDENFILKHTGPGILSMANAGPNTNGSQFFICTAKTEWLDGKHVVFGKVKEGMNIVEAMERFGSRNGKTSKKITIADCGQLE
pIC50: −log10 of the molar value.

For the molecule CCn1c(-c2cccnc2[C@H](C)OC)c2c3cc(ccc31)-c1cc(O)cc(c1)C[C@H](NC(=O)[C@H](C1CCCC1)N(C)C(=O)[C@H](C)N(C)C(=O)[C@@H]1N[C@@H]1C1CC1)C(=O)N1CCC[C@H](N1)C(=O)OCC(C)(C)C2 [Example 328] , give its measured pIC50 value. 7.00 to 8.00

Proceeding to the next molecule to report its pIC50.
Provide measured pIC50 value, entry: CCn1c(-c2cccnc2[C@H](C)OC)c2c3cc(ccc31)-c1cc(O)cc(c1)C[C@H](NC(=O)[C@H](C(C)C)N(C)C(=O)CN(C)C(=O)[C@@H]1CN1CCCN1CCCC1=O)C(=O)N1CCC[C@H](N1)C(=O)OCC(C)(C)C2 (some centres unmarked) [Example 269] 7.00 to 8.00

Reference source for all entries: patent US20230233569A1
